system.name: Urotensin-2 receptor (Homo sapiens)
Sequence (whole entry): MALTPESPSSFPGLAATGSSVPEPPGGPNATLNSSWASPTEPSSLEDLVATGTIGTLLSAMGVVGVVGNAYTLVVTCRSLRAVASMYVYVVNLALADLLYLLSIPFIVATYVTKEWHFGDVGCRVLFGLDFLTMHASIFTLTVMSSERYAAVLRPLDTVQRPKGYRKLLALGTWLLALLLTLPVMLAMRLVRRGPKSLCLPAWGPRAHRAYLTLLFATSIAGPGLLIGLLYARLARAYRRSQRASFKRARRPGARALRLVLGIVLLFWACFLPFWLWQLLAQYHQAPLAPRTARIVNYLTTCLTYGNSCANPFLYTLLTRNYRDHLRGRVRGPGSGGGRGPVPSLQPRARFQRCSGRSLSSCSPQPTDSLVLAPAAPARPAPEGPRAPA
method.description: Agonist activity at human UT receptor expressed in HEK293 cells co-expressing Gq-polycistronic BRET biosensor assessed as induction of Gq activation measured for 5 mins by luminescence detection based BRET assay relative to 10 uM URP
Type: functional, cell-based
Emax for assorted compounds
Value expressed in %; do not type the unit.

Form field: reported Emax of `CC(C)[C@H](NC(=O)[C@@H]1CSSC[C@H](NC(=O)[C@@H](C)N)C(=O)N[C@@H](Cc2ccc(-c3ccccc3)cc2)C(=O)N[C@@H](Cc2c[nH]c3ccccc23)C(=O)N[C@@H](CCCCN)C(=O)N[C@@H](Cc2ccc(O)cc2)C(=O)N1)C(=O)O`
102

What measured Emax goes with `CC(C)[C@H](NC(=O)[C@@H]1CSSC[C@H](NC(=O)[C@@H](C)N)C(=O)N[C@@H](Cc2ccc(C#Cc3ccccc3)cc2)C(=O)N[C@@H](Cc2c[nH]c3ccccc23)C(=O)N[C@@H](CCCCN)C(=O)N[C@@H](Cc2ccc(O)cc2)C(=O)N1)C(=O)O` ?
101

====

The following molecules are listed with their measured fold change (FC) values.
system.name: Urotensin-2 receptor (Homo sapiens) (UniProt Q9UKP6)
method.description: Bias factor, ratio of deltalog(Tau/KA) for agonist activity at human UT receptor expressed in HEK293 cells co-expressing Gq-polycistronic BRET biosensor assessed as induction of Gq activation by luminescence detection based BRET assay to deltalog(Tau/KA) for agonist activity at human UT receptor expressed in HEK293 cells co-expressing G12-polycistronic BRET biosensor assessed as induction of G12 activation by luminescence detection based BRET assay
Format: functional, cell-based
Returns: the value as a bare number; no unit string appended.

Examples from the recorded data:
Look up fold change (FC) for this molecule: `CC(C)[C@H](NC(=O)[C@@H]1CSSC[C@H](NC(=O)[C@H](C)N)C(=O)N[C@@H](Cc2ccccc2)C(=O)N[C@@H](Cc2c[nH]c3ccccc23)C(=O)N[C@@H](CCCCN)C(=O)N[C@@H](Cc2ccc(O)cc2)C(=O)N1)C(=O)O`
1

For the molecule `CC(C)[C@H](NC(=O)[C@@H]1CSSC[C@H](NC(=O)[C@H](N)CC(=O)O)C(=O)N[C@@H](Cc2ccc(I)cc2)C(=O)N[C@@H](Cc2c[nH]c3ccccc23)C(=O)N[C@@H](CCCCN)C(=O)N[C@@H](Cc2ccc(O)cc2)C(=O)N1)C(=O)O` , what fold change (FC) is on record?
0.2

Look up fold change (FC) for this molecule: `CC(C)[C@H](NC(=O)[C@@H]1CSSC[C@H](NC(=O)[C@H](C)N)C(=O)N[C@@H](Cc2ccc(-c3ccccc3)cc2)C(=O)N[C@@H](Cc2c[nH]c3ccccc23)C(=O)N[C@@H](CCCCN)C(=O)N[C@@H](Cc2ccc(O)cc2)C(=O)N1)C(=O)O`
0.7

--- query ---
Requested field: fold change (FC). Item: `CC(C)[C@H](NC(=O)[C@@H]1CSSC[C@H](NC(=O)[C@@H](N)CC(=O)O)C(=O)N[C@@H](Cc2ccc(I)cc2)C(=O)N[C@@H](Cc2c[nH]c3ccccc23)C(=O)N[C@@H](CCCCN)C(=O)N[C@@H](Cc2ccc(O)cc2)C(=O)N1)C(=O)O`
0.6

====

system.name: Urotensin-2 receptor (Homo sapiens)
Sequence (whole entry): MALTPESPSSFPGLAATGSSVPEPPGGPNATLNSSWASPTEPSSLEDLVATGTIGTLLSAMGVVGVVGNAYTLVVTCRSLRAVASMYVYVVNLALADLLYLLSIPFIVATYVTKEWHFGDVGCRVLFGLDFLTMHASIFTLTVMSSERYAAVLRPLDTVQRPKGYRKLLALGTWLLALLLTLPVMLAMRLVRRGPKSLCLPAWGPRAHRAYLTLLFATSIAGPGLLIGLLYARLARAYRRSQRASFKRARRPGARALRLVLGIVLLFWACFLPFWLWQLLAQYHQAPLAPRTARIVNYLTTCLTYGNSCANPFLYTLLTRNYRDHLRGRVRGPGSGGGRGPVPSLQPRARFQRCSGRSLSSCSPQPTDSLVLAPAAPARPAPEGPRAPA
method.description: Bias factor, ratio of deltalog(Tau/KA) for agonist activity at human UT receptor expressed in HEK293 cells co-expressing G12-polycistronic BRET biosensor assessed as induction of G12 activation by luminescence detection based BRET assay to deltalog(Tau/KA) for agonist activity at human UT receptor expressed in HEK293 cells co-expressing Gq-polycistronic BRET biosensor assessed as induction of Gq activation by luminescence detection based BRET assay
Format: functional, cell-based
assay.metric: fold change (FC)
// keep it numeric: no unit symbol after the value

Study these solved cases before continuing.
Given the entry `CC(C)[C@H](NC(=O)[C@@H]1CSSC[C@H](NC(=O)[C@H](C)N)C(=O)N[C@@H](Cc2ccc(I)cc2)C(=O)N[C@@H](Cc2c[nH]c3ccccc23)C(=O)N[C@@H](CCCCN)C(=O)N[C@@H](Cc2ccc(O)cc2)C(=O)N1)C(=O)O` , what fold change (FC) was observed with Urotensin-2 receptor (Homo sapiens)?
0.8

What fold change (FC) appears in the records for this molecule with Urotensin-2 receptor (Homo sapiens)? `CC(C)[C@H](NC(=O)[C@@H]1CSSC[C@H](NC(=O)[C@@H](C)N)C(=O)N[C@@H](Cc2ccc(C#Cc3ccccc3)cc2)C(=O)N[C@@H](Cc2c[nH]c3ccccc23)C(=O)N[C@@H](CCCCN)C(=O)N[C@@H](Cc2ccc(O)cc2)C(=O)N1)C(=O)O`
12.1

// map `CC(C)[C@H](NC(=O)[C@@H]1CSSC[C@H](NC(=O)[C@H](N)CC(=O)O)C(=O)N[C@@H](Cc2ccc(I)cc2)C(=O)N[C@@H](Cc2c[nH]c3ccccc23)C(=O)N[C@@H](CCCCN)C(=O)N[C@@H](Cc2ccc(O)cc2)C(=O)N1)C(=O)O` to recorded fold change (FC) (system: Urotensin-2 receptor (Homo sapiens))
4.3

Which measured fold change (FC) belongs to `CC(C)[C@H](NC(=O)[C@@H]1CSSC[C@H](NC(=O)[C@@H](N)CC(=O)O)C(=O)N[C@@H](Cc2ccc(I)cc2)C(=O)N[C@@H](Cc2c[nH]c3ccccc23)C(=O)N[C@@H](CCCCN)C(=O)N[C@@H](Cc2ccc(O)cc2)C(=O)N1)C(=O)O` , tested on Urotensin-2 receptor (Homo sapiens)?
1.7

# get_value(readout= fold change (FC), system= Urotensin-2 receptor (Homo sapiens)) for `CC(C)[C@H](NC(=O)[C@@H]1CSSC[C@H](NC(=O)[C@H](C)N)C(=O)N[C@@H](Cc2ccccc2)C(=O)N[C@@H](Cc2c[nH]c3ccccc23)C(=O)N[C@@H](CCCCN)C(=O)N[C@@H](Cc2ccc(O)cc2)C(=O)N1)C(=O)O`
1

// lookup fold change (FC) | system=Urotensin-2 receptor (Homo sapiens) | key= `CC(C)[C@H](NC(=O)[C@@H]1CSSC[C@H](NC(=O)[C@@H](C)N)C(=O)N[C@@H](Cc2ccc(I)cc2)C(=O)N[C@@H](Cc2c[nH]c3ccccc23)C(=O)N[C@@H](CCCCN)C(=O)N[C@@H](Cc2ccc(O)cc2)C(=O)N1)C(=O)O`
7.8

Item `CC(C)[C@H](NC(=O)[C@@H]1CSSC[C@H](NC(=O)[C@H](C)N)C(=O)N[C@@H](Cc2ccc(C#Cc3ccccc3)cc2)C(=O)N[C@@H](Cc2c[nH]c3ccccc23)C(=O)N[C@@H](CCCCN)C(=O)N[C@@H](Cc2ccc(O)cc2)C(=O)N1)C(=O)O` with Urotensin-2 receptor (Homo sapiens) - fold change (FC)?
1.8

Given the entry `CC(C)[C@H](NC(=O)[C@@H]1CSSC[C@H](NC(=O)[C@@H](C)N)C(=O)N[C@@H](Cc2ccc(-c3ccccc3)cc2)C(=O)N[C@@H](Cc2c[nH]c3ccccc23)C(=O)N[C@@H](CCCCN)C(=O)N[C@@H](Cc2ccc(O)cc2)C(=O)N1)C(=O)O` , what fold change (FC) was observed with Urotensin-2 receptor (Homo sapiens)?
50

Continuing:
Record lookup: for Urotensin-2 receptor (Homo sapiens), what fold change (FC) belongs to `CC(C)[C@H](NC(=O)[C@@H]1CSSC[C@H](NC(=O)[C@H](C)N)C(=O)N[C@@H](Cc2ccc(-c3ccccc3)cc2)C(=O)N[C@@H](Cc2c[nH]c3ccccc23)C(=O)N[C@@H](CCCCN)C(=O)N[C@@H](Cc2ccc(O)cc2)C(=O)N1)C(=O)O` ?
1.4

Values compiled from ChEMBL document CHEMBL4196183.
